Organism: Mus musculus
Assay: Time to peak toxicity was evaluated by Maximal electroshock seizure test in hours
Assay type: functional
Threshold-based label: TPE under 2 gives T, TPE not under 2 gives F.

>  <Compound>
CCC1(c2ccccc2)C(=O)NC(=O)NC1=O

>  <Group Label>
T

$$$$
>  <Compound>
O=C(Cc1cccc(Cl)c1)NS(=O)(=O)C(F)(F)F

>  <Group Label>
T

$$$$
>  <Compound>
O=C(Cc1ccccc1)NS(=O)(=O)C(F)(F)F

>  <Group Label>
F

$$$$
>  <Compound>
O=C(Cc1ccc(Cl)cc1)NS(=O)(=O)C(F)(F)F

>  <Group Label>
F

$$$$
>  <Compound>
O=C(Cc1ccc([N+](=O)[O-])cc1)NS(=O)(=O)C(F)(F)F

>  <Group Label>
F

$$$$
>  <Compound>
CCC1(C)CC(=O)NC1=O (stereo unspecified) [ETHOSUXIMIDE]

>  <Group Label>
T

$$$$
>  <Compound>
COc1ccc(CC(=O)NS(=O)(=O)C(F)(F)F)cc1

>  <Group Label>
T

$$$$
>  <Compound>
CCCC(CCC)C(=O)O

>  <Group Label>
T

$$$$
